method-summary: Counterscreen qHTS for Identification of Calcium Integrin Binding Protein 1 (CIB1) Competitor
cond: series mostly up to 114 µM
Records with an inconclusive call do not appear. Activity calls are given as the source filed them. Calls follow the shape of the dose curve; as a rule, active = well fitted inhibition curve with a large enough effect; inconclusive = small, poorly fitted or top-dose-only effect; inactive = no such curve, though single readings can be large or run the other way.
In this exercise, the only acceptable responses are Yes = active, No = inactive

Could you kindly confirm the outcome this assay logged for N#Cc1ccc(N[S+](=O)([O-])c2ccc(Nc3nc(-c4ccccc4)cs3)cc2)cc1 ?
Yes

Hello, I am checking results. What call was entered for CO[C@@H]1C(N(C)C(=O)c2ccccc2)C[C@H]2O[C@]1(C)n1c3ccccc3c3c4c(c5c6ccccc6n2c5c31)C(=O)NC4=O (stereo partly specified) ?
Yes

Query: recorded result category for CC(=O)Nc1sc2c(c1-c1nc3ccccc3s1)CNC2 in this test
No

Entry O=S(=O)(Nc1nc2ccccc2s1)c1ccc(NCc2ccc(Br)cc2O)cc1 : call = ?
No

Query: recorded result category for NS(=O)(=O)c1ccc(Nc2nc(-c3ccccc3)cs2)cc1 in this test
Yes

Per the assay record, what outcome was assigned to O=C1CCC2=C1C1(CCCC1)N=C(Nc1nc3ccccc3o1)N2 ?
No

Short answer needed: outcome of this test for CN1CCc2cccc3c2[C@H]1Cc1ccc(O)c(O)c1-3 ?
No

Returns: the outcome recorded for COC(=O)c1ccc(O)c2ncc(-c3ccc(C(=O)NCCCN(C)C)cc3)cc12 in this assay.
No

Call for entry COc1cc(C(=O)NS(=O)(=O)c2ccccc2C)ccc1Cc1cn(C)c2ccc(NC(=O)OC3CCCC3)cc12 :
No

I would be grateful if you could indicate the recorded call for CN1CCCN(C(=O)c2cccc(-c3ccc(C=C4C(=O)Nc5ccc(Cl)cc54)o3)c2)CC1 .
Yes

Query: recorded result category for CCN(CC)C(=S)SSC(=S)N(CC)CC in this test
No

Hello, I am checking results. What call was entered for C=C(CC)C(=O)c1ccc(OCC(=O)O)c(Cl)c1Cl ?
No

Recorded test outcome, item O=[S+]([O-])(Nc1nccs1)c1ccc(NCc2cc(Cl)cc(Br)c2O)cc1
No

I'd appreciate the recorded outcome for Fc1ccc(NC(=S)Nc2nnc(-c3ccncc3)s2)cc1C(F)(F)F from this test.
No

Hi, sorry to bother you, what did the test record for O=c1[nH]sc2cc(Cl)ccc12 ?
No

GET /call?item= CCOc1ccc(CCNC(=O)c2ccc(N3N=C(C)CC3=O)cc2)cc1OCC returns the recorded outcome of this test.
No

Field: outcome | Entry: Cc1cc2nc3ccc(=[N+](C)C)cc-3sc2cc1N
Yes

GET /call?item= O=C1CCCC2=C1C1(CCOCC1)N=C(Nc1nc3ccccc3o1)N2 returns the recorded outcome of this test.
No

Could you kindly confirm the outcome this assay logged for CC(OC(=O)c1ccc(S(C)(=O)=O)c([N+](=O)[O-])c1)C(=O)NC1C2CC3CC(C2)CC1C3 (stereo unspecified) ?
No

For this compound, state the assay outcome: O=C(O)c1c(Cl)c(Cl)c(Cl)c(Cl)c1-c1c2cc(I)c(=O)c(I)c-2oc2c(I)c(O)c(I)cc12
No

Fill in: this test's call for O=C(O)C1=NC(C(=O)O)CC(C=CN2c3cc(O)c(OC4OC(CO)C(O)C(O)C4O)cc3CC2C(=O)O)=C1 (stereo unspecified) is ___
No

====

method-summary: Counterscreen qHTS for Identification of Calcium Integrin Binding Protein 1 (CIB1) Competitor
cond: series mostly up to 114 µM
Results filed as inconclusive are left out. Activity calls are given as the source filed them. Calls follow the shape of the dose curve; as a rule, active = well fitted inhibition curve with a large enough effect; inconclusive = small, poorly fitted or top-dose-only effect; inactive = no such curve, though single readings can be large or run the other way.
Please reply with one of these outcomes: active, inactive

Entry Cc1ccc(S(=O)(=O)Nc2cnccc2C(=O)Nc2ccc(-c3nn[nH]n3)cc2)cc1 : call = ?
inactive

Field: outcome | Entry: C=Cc1c(C)c2cc3[nH]c(cc4nc(cc5nc(cc1[nH]2)C(C)=C5CCC(=O)O)C(CCC(=O)O)=C4C)c(C)c3C=C
active

Outcome? CCOC(=O)c1c(-c2ccc(C)o2)csc1NC(=O)CSc1nnnn1-c1ccccc1
inactive

Record lookup: outcome of this test for O=C(O)c1ccc(-c2ccc3ncnc(NCc4nccs4)c3c2)o1 ?
inactive

Hello, I am checking results. What call was entered for CCOC(=O)c1nnc(N[S+](=O)([O-])c2ccc(NC(=O)Cc3ccc(Cl)c(Cl)c3)cc2)s1 ?
inactive

State the result this test recorded for Cc1cc(=O)oc2cc(SC3=NS(=O)(=O)c4ccccc43)ccc12 .
inactive

What outcome does the record of this test show for CCc1ccc(C=C2SC(=S)NC2=O)cc1 ?
inactive

Outcome logged for Cc1ccc(S(=O)(=O)Nc2cc3c(cc2C(=O)Nc2nc(-c4ccccc4)cs2)OCO3)cc1 in this assay:
inactive

Hi, sorry to bother you, what did the test record for CCCCCCCCOc1ccccc1C(=O)Nc1ccc(C(=O)OCC[N+](C)(CC)CC)cc1 ?
inactive

Assay outcome for Cc1c(C)n(Cc2ccc(-c3ccccc3C(=O)O)cc2)c2ccc(C(=O)N[C@@H](C)c3ccc([N+](=O)[O-])cc3)cc12 : what was it?
inactive

Which outcome was entered for the molecule CC(O)c1ccc(-c2ccc3ncnc(N4CCOCC4)c3c2)o1 (configuration not stated) in this test?
inactive

Dear colleague, could you share the recorded outcome for O=[S+]([O-])(Nc1nccs1)c1ccc(NCc2cc(F)cc(Cl)c2O)cc1 when you have a moment?
inactive

Could you kindly confirm the outcome this assay logged for O=C(O)c1ccccc1SC1=NS(=O)(=O)c2ccccc21 ?
inactive

I'd appreciate the recorded outcome for NC(=O)c1ccnc2c(O)cccc12 from this test.
inactive

Field: outcome | Entry: Nc1ccc(O)c([N+](=O)[O-])c1
active

GET /call?item= CCOc1ccc2nc3cc(N)ccc3c(N)c2c1 returns the recorded outcome of this test.
active

Test call, this molecule: O=C1CCCC2=C1C(c1cccnc1Br)N=C(Nc1nc3ccccc3o1)N2 (configuration not stated)
inactive

Write down the call the test reported for this molecule. Item: O=C(Cc1ccccc1)NC(c1ccco1)c1cc(Cl)c2cccnc2c1O (configuration not stated)
inactive

// outcome(item) with item = O=S(=O)(Nc1nccs1)c1ccc(Nc2nc(-c3ccccc3)cs2)cc1
active

Please indicate how the test categorized CN(C)c1cnc2c(O)cccc2c1 .
inactive

Look up the recorded call for C[C@@H](NCc1cc2ccccc2[nH]1)c1cccc2ccccc12 in this test.
inactive

Assay result, entry CN(C)CCN1C(=O)c2cccc3cc(N)cc(c23)C1=O — outcome?
inactive

====

method-summary: Counterscreen qHTS for Identification of Calcium Integrin Binding Protein 1 (CIB1) Competitor
cond: series mostly up to 114 µM
Results filed as inconclusive are left out. Activity calls are given as the source filed them. Calls come from the whole dose curve; as a rule, active = well fitted inhibition curve with a large enough effect; inconclusive = small, poorly fitted or top-dose-only effect; inactive = no such curve, though single readings can be large or run the other way.
Return exactly one item of yes (1) (active), no (0) (inactive)

For O=S(=O)(Nc1nccs1)c1ccc(NCc2cc(Cl)ccc2O)cc1 , which call appears in the assay record?
no (0)

Recorded test outcome, item CS(=O)(=O)c1ccc(C(=O)OCC(=O)N2CCC(Cc3ccccc3)CC2)cc1[N+](=O)[O-]
no (0)

Test call for this molecule, please: Cc1ccc(S(=O)(=O)Nc2cnccc2C(=O)Nc2nc3ccccc3s2)cc1
no (0)

Could you please tell me the result logged for Cn1cc(-c2[nH]c3cc(NC(=O)[C@H](N)C4CCCCC4)cc4c3c2C=NNC4=O)cn1 in this assay?
yes (1)

Tell me the assay call for CC(C)(C)c1ccc(SC2=NS(=O)(=O)c3ccccc32)cc1 please.
no (0)

Record lookup: outcome of this test for O=c1c(O)c(-c2ccc(O)c(O)c2)oc2cc(O)cc(O)c12 ?
no (0)

Could you kindly confirm the outcome this assay logged for O=c1c2ccccc2nc2sc(NS(=O)(=O)c3ccc4c(c3)CCC4)nn12 ?
no (0)

Which outcome was assigned to COc1ccc2nc(S(=O)Cc3ncc(C)c(OC)c3C)[nH]c2c1 (stereo not given) in this test?
no (0)

How did this test come out for CSC(Cc1ccc(Cl)cc1)C(=O)Nc1ccc(Cl)cc1C(=O)O (stereo not given) ?
no (0)

Hello, I am checking results. What call was entered for CCc1oc2ccccc2c1C(=O)c1cc(Br)c(O)c(Br)c1 ?
no (0)

src = PubChem BioAssay AID1508619
